# Target Of Assay: His tagged recombinant human tissue transglutaminase (His6-rh-TG2) (Homo sapiens, UniProt P21980)
# Sequence (P21980 1-687): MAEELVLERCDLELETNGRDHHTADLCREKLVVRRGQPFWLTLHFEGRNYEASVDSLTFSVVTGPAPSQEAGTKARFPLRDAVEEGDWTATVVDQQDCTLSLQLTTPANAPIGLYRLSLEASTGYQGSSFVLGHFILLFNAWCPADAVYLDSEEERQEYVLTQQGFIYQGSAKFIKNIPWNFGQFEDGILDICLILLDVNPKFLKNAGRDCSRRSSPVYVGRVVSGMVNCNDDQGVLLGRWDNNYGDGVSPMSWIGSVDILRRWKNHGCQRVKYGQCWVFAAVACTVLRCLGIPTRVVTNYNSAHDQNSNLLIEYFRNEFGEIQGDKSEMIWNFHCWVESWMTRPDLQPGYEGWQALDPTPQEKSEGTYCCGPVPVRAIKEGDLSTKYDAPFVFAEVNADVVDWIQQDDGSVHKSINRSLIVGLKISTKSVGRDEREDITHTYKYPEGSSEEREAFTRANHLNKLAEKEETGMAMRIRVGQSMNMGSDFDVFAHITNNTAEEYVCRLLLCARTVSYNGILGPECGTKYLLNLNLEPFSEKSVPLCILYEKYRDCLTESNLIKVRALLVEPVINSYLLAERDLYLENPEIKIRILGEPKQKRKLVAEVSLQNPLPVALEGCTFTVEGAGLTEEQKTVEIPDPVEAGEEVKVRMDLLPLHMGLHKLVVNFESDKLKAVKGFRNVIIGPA
# Experiment Notes: Inactivation of human tissue transglutaminase, fluorescence assay with Abz-APE(CAD-DNP)QEA-OH
# Conditions: substrate Abz-APE(CAD-DNP)QEA-OH, 37° C., pH=7.5
# Method: General Method for Inactivation of Human Tissue Transglutaminase […] The evaluation of the resulting enzyme activity is done using the slope of the straight line obtained by the increase in fluorescence. To determine the non-inhibited enzyme activity, DMSO instead of inhibitor stock solution is used. IC50 values are determined by plotting the resulting enzyme activity against the logarithm of the inhibitor concentration. […]
pIC50: −log10 of the molar value.
Measurement Label: pIC50

Example results:
CCOC(=O)/C=C/CC[C@H](NC(=O)c1ccc2c(c1)OCCN2C)C(=O)Nc1cccn(CC(=O)NCCC(C)C)c1=O : 6.95
CCOC(=O)/C=C/CC[C@H](NC(=O)CCC(=O)O)C(=O)Nc1cccn(CC(=O)NCC(C)CC)c1=O (stereo partly drawn) : 6.78
COC(=O)/C=C/CC[C@H](NC(C)=O)C(=O)Nc1cccn(CC(=O)N2CCCC(C(F)(F)F)C2)c1=O (stereo partly drawn) : 6.51
CCC(CC)CNC(=O)Cn1cccc(NC(=O)[C@H](CC/C=C/C(=O)OC)NC(=O)C(C)N)c1=O (stereo partly drawn) [A68, 2,2,2-trifluoroacetate] : 7.28

[a] CCOC(=O)/C=C/CC[C@H](NC(C)=O)C(=O)Nc1cccn(CC(=O)NCCN(CC)CC)c1=O
[b] CCOC(=O)/C=C/CC[C@H](NC(=O)CCC(=O)O)C(=O)Nc1cccn(CC(=O)NCCC(C)(C)C)c1=O
Query: Of the two listed items, which has the higher pIC50? First: a Second: b // return label of chosen record
Result: b
(b: 6.76, a: 5.32)

[1] CCOC(=O)/C=C/CC[C@H](NC(=O)OCc1ccccc1)C(=O)Nc1ccc(C)n(CC(=O)NC(CC(=O)O)CC(C)C)c1=O (stereo partly drawn)
[2] CCOC(=O)/C=C/CC[C@H](NS(=O)(=O)Cc1ccc(Cl)cc1)C(=O)Nc1cccn(CC(=O)NCCC(C)C)c1=O
Query: Of the two listed items, which has the higher pIC50? First: 1 Second: 2 // return label of chosen record
Result: 1

[P] CCOC(=O)/C=C/CC[C@H](NC(C)=O)C(=O)Nc1cccn(CC(=O)NC(C)C(C)C)c1=O (stereo partly drawn)
[Q] CCOC(=O)/C=C/CC[C@H](NC(=O)c1ncsc1C)C(=O)Nc1cccn(CC(=O)NCCC(C)C)c1=O
Query: Problem: Given the entries P and Q , determine which has the lower reported pIC50. // return label of chosen record
Result: P

[A] CCOC(=O)/C=C/CC[C@H](NC(C)=O)C(=O)Nc1cccn(CC(=O)NCCC(CC)CC)c1=O
[B] CCOC(=O)/C=C/CC[C@H](NC(=O)c1cncn1C)C(=O)Nc1cccn(CC(=O)NCCC(C)C)c1=O
Query: Of the two listed items, which has the higher pIC50? First: A Second: B // return label of chosen record
Result: B

[I] CCOC(=O)/C=C/CC[C@H](NC(=O)CCC(=O)O)C(=O)Nc1cccn(CC(=O)N[C@@H](CC(C)(C)C)C(=O)OC)c1=O
[II] CCC(CC)CNC(=O)Cn1cccc(NC(=O)[C@H](CC/C=C/C(=O)OC)NC(=O)c2ccc3c(c2)C(=O)OC32c3ccc(N(C)C)cc3Oc3cc(N(C)C)ccc32)c1=O
Query: Problem: Given the entries I and II , determine which has the lower reported pIC50. // return label of chosen record
Result: I

Ref: patent US9434763B2
